Let's look at some compounds and their measured DC50.
measured_target: EML4-ALK (Homo sapiens, UniProt Q9UM73)
Construct: endogenous in cells; host or cells: H3122 (NSCLC), single-cell clone after CRISPR knock-in of HiBit; the other entry of the earlier key: EML4 (Q9HC35, Echinoderm microtubule-associated protein-like 4)
Sequence (Q9UM73 with tags, fused parts or gaps): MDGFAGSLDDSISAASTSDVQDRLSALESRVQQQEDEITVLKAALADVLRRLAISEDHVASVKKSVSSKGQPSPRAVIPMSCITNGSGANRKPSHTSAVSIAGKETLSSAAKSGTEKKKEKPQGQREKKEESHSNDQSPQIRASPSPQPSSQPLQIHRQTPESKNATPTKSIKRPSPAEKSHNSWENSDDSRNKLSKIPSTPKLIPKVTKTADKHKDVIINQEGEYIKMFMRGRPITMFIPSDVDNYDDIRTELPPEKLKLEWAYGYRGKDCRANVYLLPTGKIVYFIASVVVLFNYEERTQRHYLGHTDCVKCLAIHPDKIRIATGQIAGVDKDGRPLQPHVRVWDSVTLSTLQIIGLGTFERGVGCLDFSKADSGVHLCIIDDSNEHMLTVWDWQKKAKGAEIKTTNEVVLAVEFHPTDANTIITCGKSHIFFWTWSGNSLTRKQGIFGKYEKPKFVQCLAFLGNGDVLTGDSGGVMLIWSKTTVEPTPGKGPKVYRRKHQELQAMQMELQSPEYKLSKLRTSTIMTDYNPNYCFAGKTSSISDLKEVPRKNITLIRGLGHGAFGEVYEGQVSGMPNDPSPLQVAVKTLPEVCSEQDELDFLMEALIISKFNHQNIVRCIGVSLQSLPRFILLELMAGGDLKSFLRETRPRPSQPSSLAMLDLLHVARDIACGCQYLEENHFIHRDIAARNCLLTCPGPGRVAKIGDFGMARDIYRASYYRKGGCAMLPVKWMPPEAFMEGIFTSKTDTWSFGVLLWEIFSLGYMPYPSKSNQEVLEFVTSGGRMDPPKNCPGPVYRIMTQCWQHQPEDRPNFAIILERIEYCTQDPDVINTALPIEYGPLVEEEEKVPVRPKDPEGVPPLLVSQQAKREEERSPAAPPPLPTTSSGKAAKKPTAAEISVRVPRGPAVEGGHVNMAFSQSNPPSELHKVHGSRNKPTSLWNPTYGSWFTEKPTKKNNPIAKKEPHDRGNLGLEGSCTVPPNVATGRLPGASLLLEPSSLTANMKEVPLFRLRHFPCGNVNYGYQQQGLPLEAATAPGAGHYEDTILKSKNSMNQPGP
method_summary: EML4-ALK HiBit degradation assay in CRISPR-tagged H3122 cells (Nano-Glo HiBit Lytic Detection)
Type: cell-based
test_conditions: Table 1; average DC50; read-out: Degradation Avg. DC50

| compound | DC50, nM |
| --- | --- |
| COc1cc(CCN(C)C(=O)CCCC#Cc2cccc3c2C(=O)N(C2CCC(=O)NC2=O)C3=O)c(C)cc1Nc1ncc(Cl)c(Nc2ccccc2S(=O)(=O)C(C)C)n1 (centres unmarked) | 265 |
| COc1cc(CCNCCCCCC(=O)N[C@H](C(=O)N2C[C@H](O)C[C@H]2C(=O)N[C@@H](C)c2ccc(-c3scnc3C)cc2)C(C)(C)C)c(C)cc1Nc1ncc(Cl)c(Nc2ccccc2S(=O)(=O)C(C)C)n1 | 1250 |
| COc1cc(CCN(C)C(=O)CCCCCCC(=O)N[C@H](C(=O)N2C[C@H](O)C[C@H]2C(=O)N[C@@H](C)c2ccc(-c3scnc3C)cc2)C(C)(C)C)c(C)cc1Nc1ncc(Cl)c(Nc2ccccc2S(=O)(=O)C(C)C)n1 | 269 |
| COc1cc(CCN(C)C(=O)CCCCCCCCC(=O)N[C@H](C(=O)N2C[C@H](O)C[C@H]2C(=O)N[C@@H](C)c2ccc(-c3scnc3C)cc2)C(C)(C)C)c(C)cc1Nc1ncc(Cl)c(Nc2ccccc2S(=O)(=O)C(C)C)n1 | 777 |
| COc1cc(CCNCCCCCCCC(=O)N[C@H](C(=O)N2C[C@H](O)C[C@H]2C(=O)N[C@@H](C)c2ccc(-c3scnc3C)cc2)C(C)(C)C)c(C)cc1Nc1ncc(Cl)c(Nc2ccccc2S(=O)(=O)C(C)C)n1 | 390 |
